Reference source for all entries: ChEMBL document CHEMBL1122267

Species: Rattus norvegicus
Test: Effective dose for 50 percent inhibition of gastric antisecretory activity in the 4 hr pylorus-ligated rat
Assay type: functional
Details: Stomach
measurement_kind: ED50

Please review the entries below; each comes with its answer.
CN/C(=N\CCSCc1nc[nH]c1C)NC#N    60.3 mg/kg
C/N=C(\NC#N)NCCSCn1nc(-c2ccc(Cl)cc2)ccc1=O    < 39.1 mg/kg
C/N=C(\NC#N)NCCCCn1nc(-c2ccccc2)ccc1=O    32.4 mg/kg

Lookup: Param item = CC/N=C(\NC#N)NCCSCCn1nc(-c2ccccc2)ccc1=O ; retrieve measured ED50.
Found: < 100 mg/kg

Lookup: Next: C/N=C(\NC#N)NCCSCCn1nc(-c2ccccc2)ccc1=O
Found: < 80 mg/kg

Lookup: Next record, please: C/N=C(\NC#N)NCCCOCn1nc(-c2ccccc2)ccc1=O
Found: < 100 mg/kg

Lookup: How about CC/N=C(\NC#N)NCCSCn1nc(-c2ccccc2)ccc1=O ?
Found: < 100 mg/kg

Lookup: Again, but for C/N=C(\NC#N)NCCCCOCn1nc(-c2ccccc2)ccc1=O
Found: > 100 mg/kg

Lookup: Now this one: C/N=C(\NC#N)NCCSCn1nc(-c2ccccc2)ccc1=O
Found: < 30.5 mg/kg

Lookup: Then CCC/N=C(\NC#N)NCCSCn1nc(-c2ccccc2)ccc1=O ?
Found: > 100 mg/kg

Lookup: Try this molecule too: CC/N=C(\NC#N)NCCSCn1nc(C)ccc1=O
Found: > 100 mg/kg

###

Organism: Rattus norvegicus
Assay: Effective dose for 50 percent inhibition of gastric antisecretory activity in the 4 hr pylorus-ligated rat
Type: functional
Settings: Stomach
In this section we review reported ED50 values for a set of compounds.

Record excerpt, results attached:
C/N=C(\NC#N)NCCSCn1nc(-c2ccc(C)cc2)ccc1=O    < 53.8 mg/kg
C/N=C(\NC#N)NCCOCn1nc(-c2ccccc2)ccc1=O    < 82.3 mg/kg
CCC/N=C(\NC#N)NCCSCCn1nc(-c2ccccc2)ccc1=O    > 100 mg/kg

Please examine the following record next.
Lookup: Give its ED50 value. Item: C/N=C(\NC#N)NCCSCn1nc(C)ccc1=O
Found: > 100 mg/kg
